# studyTarget: feline FcRn complex (FcRn-α subunit and β-microglobulin) (feline)
# assayName: SPR (Biacore), FcRn on SA chip, pH 7.4
experimentalReadout: pKd
The quantity pKd is defined as the negative base-10 logarithm of the molar concentration.

Sample records with pKd:
binder	pKd
feline IgG1a mutant ID No. 321: S428Y, D312P, S434Y, A431K (antibody, part only; not given: Variable domains, not shown: another chain or arm of the molecule) constant: ASTTAPSVFPLAPSCGTTSGATVALACLVLGYFPEPVTVSWNSGALTSGVHTFPAVLQASGLYSLSSMVTVPSSRWLSDTFTCNVAHPPSNTKVDKTVRKTDHPPGPKPCDCPKCPPPEMLGGPSIFIFPPKPKDTLSISRTPEVTCLVVDLGPDDSDVQITWFVDNTQVYTAKTSPREEQFNSTYRVVSVLPILHQPWLKGKEFKCKVNSKSLPSPIERTISKAKGQPHEPQVYVLPPAQEELSRNKVSVTCLIKSFHPPDIAVEWEITGQPEPENNYRTTPPQLDSDGTYFVYSKLSVDRSHWQRGNTYTCSVYHEKLHYHHTQKSLTQSPGK	7.99
feline IgG1a mutant ID No. 345: S252Y, S428M, S434F, E430I (antibody, part only; not given: Variable domains, not shown: another chain or arm of the molecule) constant: ASTTAPSVFPLAPSCGTTSGATVALACLVLGYFPEPVTVSWNSGALTSGVHTFPAVLQASGLYSLSSMVTVPSSRWLSDTFTCNVAHPPSNTKVDKTVRKTDHPPGPKPCDCPKCPPPEMLGGPSIFIFPPKPKDTLYISRTPEVTCLVVDLGPDDSDVQITWFVDNTQVYTAKTSPREEQFNSTYRVVSVLPILHQDWLKGKEFKCKVNSKSLPSPIERTISKAKGQPHEPQVYVLPPAQEELSRNKVSVTCLIKSFHPPDIAVEWEITGQPEPENNYRTTPPQLDSDGTYFVYSKLSVDRSHWQRGNTYTCSVMHIALHFHHTQKSLTQSPGK	7.94

Query (binder): feline IgG1a mutant ID No. 249: S428M, L314K (antibody, part only; not given: variable domains and light chain, not shown: another chain or arm of the molecule; small tags and cut ends) constant: ASTTAPSVFPLAPSCGTTSGATVALACLVLGYFPEPVTVSWNSGALTSGVHTFPAVLQASGLYSLSSMVTVPSSRWLSDTFTCNVAHPPSNTKVDKTVRKTDHPPGPKPCDCPKCPPPEMLGGPSIFIFPPKPKDTLSISRTPEVTCLVVDLGPDDSDVQITWFVDNTQVYTAKTSPREEQFNSTYRVVSVLPILHQDWKKGKEFKCKVNSKSLPSPIERTISKAKGQPHEPQVYVLPPAQEELSRNKVSVTCLIKSFHPPDIAVEWEITGQPEPENNYRTTPPQLDSDGTYFVYSKLSVDRSHWQRGNTYTCSVMHEALHSHHTQKSLTQSPGK ; field requested: pKd
4.71

Field request: pKd | item: feline IgG1a mutant ID No. 359: S252Y, S434R, D312A (antibody, part only; not given: variable domains and light chain, not shown: another chain or arm of the molecule) constant: ASTTAPSVFPLAPSCGTTSGATVALACLVLGYFPEPVTVSWNSGALTSGVHTFPAVLQASGLYSLSSMVTVPSSRWLSDTFTCNVAHPPSNTKVDKTVRKTDHPPGPKPCDCPKCPPPEMLGGPSIFIFPPKPKDTLYISRTPEVTCLVVDLGPDDSDVQITWFVDNTQVYTAKTSPREEQFNSTYRVVSVLPILHQAWLKGKEFKCKVNSKSLPSPIERTISKAKGQPHEPQVYVLPPAQEELSRNKVSVTCLIKSFHPPDIAVEWEITGQPEPENNYRTTPPQLDSDGTYFVYSKLSVDRSHWQRGNTYTCSVSHEALHRHHTQKSLTQSPGK
7.60
